Target: T1, IGFBP-1 (human, UniProt P08833 26-259)
T1 construct: Biotinylated in the ELISA assays; also called rhIGFBP-1
T1 sequence (looked up): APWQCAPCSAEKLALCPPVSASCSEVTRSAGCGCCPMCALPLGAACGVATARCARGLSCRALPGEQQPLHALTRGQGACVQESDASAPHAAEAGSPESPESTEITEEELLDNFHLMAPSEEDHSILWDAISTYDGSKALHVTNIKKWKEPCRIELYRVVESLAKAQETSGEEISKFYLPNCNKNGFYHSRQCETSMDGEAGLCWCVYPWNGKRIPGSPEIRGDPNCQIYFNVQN
Experiment: BIAcore competition: peptide inhibits IGFBP-1 binding to IGF-I; ratio to bp1-01 (wt)
Each entry below carries its recorded IC50 (mut)/IC50 (wt).
Provide only the numeric value, understood in ratio.

{"columns": ["Binder", "Result Unit", "Quantitative Readout"],
 "data": [
  ["CRAGPLQWLCAKYFG (Ala-scan variant of bp1-01) [bp1-01 E11A]", "ratio", 2.9],
  ["CRAGPLQWLCEKAFG (Ala-scan variant of bp1-01) [bp1-01 Y13A]", "ratio", 12.5],
  ["CRAGPLQWLCEKYAG (Ala-scan variant of bp1-01) [bp1-01 F14A]", "ratio", 6.2]
]}

stdin: Could you share which IC50 (mut)/IC50 (wt) value was measured for CRAGPLQALCEKYFG (Ala-scan variant of bp1-01) [bp1-01 W8A] ?
stdout: 7.4

Reference source for all entries: patent US6949349
